measured-target: T1, biotinylated human plasma Kallikrein (human, UniProt P03952 20-638, biotinylated)
T1 construct: also called Biotinylated hPK
T1 sequence (P03952 20-638 limits assumed): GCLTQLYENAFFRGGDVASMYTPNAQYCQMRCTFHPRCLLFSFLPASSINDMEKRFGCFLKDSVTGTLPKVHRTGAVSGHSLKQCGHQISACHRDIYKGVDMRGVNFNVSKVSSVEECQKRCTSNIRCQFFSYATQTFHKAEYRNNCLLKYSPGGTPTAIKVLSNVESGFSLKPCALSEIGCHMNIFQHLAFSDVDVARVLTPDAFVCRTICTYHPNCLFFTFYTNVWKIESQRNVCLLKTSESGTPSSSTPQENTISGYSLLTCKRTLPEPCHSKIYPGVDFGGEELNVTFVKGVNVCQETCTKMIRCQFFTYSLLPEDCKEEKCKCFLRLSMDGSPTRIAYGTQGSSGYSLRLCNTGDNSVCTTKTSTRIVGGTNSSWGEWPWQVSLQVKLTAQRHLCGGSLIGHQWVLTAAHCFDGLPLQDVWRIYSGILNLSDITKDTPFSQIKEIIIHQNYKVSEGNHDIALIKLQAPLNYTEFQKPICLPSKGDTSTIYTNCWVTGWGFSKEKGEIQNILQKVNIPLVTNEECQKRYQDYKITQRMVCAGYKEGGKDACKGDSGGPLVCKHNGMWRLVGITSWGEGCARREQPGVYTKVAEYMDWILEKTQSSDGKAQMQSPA
assay-explanation: phage binding assay, signal:background
Numbered stars: 1 amine (or outer) side, 2 acyl side, 3 side chain; on linkers, the order of the positions; unused ones are H or OH. Bridge positions count the residues as written; N and C are the ends. Ends that are not written are not given here. TBMB = c1c(C[*:1])cc(C[*:3])cc1C[*:2]
Label scheme for Binding assay signal: low = under 70, intermediate = from 70 up to 80, high = 80 and over

binder	qualitative-label
CLWPARCTHADLC (linker 1-7-13 via TBMB (inferred)) [SEQ ID NO 133]	intermediate
CQWPARCMHQELC (linker 1-7-13 via TBMB (inferred)) [SEQ ID NO 135]	intermediate
CHWPARCTHQELC (linker 1-7-13 via TBMB (inferred)) [SEQ ID NO 124]	high
CAWPARCTHTHLC (linker 1-7-13 via TBMB (inferred)) [SEQ ID NO 149]	low
CHWPARCTHQDLC (linker 1-7-13 via TBMB) [SEQ ID NO 116]	high
CRWPARCTHTDLC (linker 1-7-13 via TBMB) [SEQ ID NO 159]	low
CAWPARCLHQDWC (linker 1-7-13 via TBMB (inferred)) [SEQ ID NO 151]	low
CQWPARCMHQDMC (linker 1-7-13 via TBMB (inferred)) [SEQ ID NO 131]	intermediate
CNWPARCTHQDLC (linker 1-7-13 via TBMB) [SEQ ID NO 115]	high
CLWPARCTHQDLC (linker 1-7-13 via TBMB (inferred)) [SEQ ID NO 122]	high
CTWPARCLHQDLC (linker 1-7-13 via TBMB (inferred)) [SEQ ID NO 136]	intermediate
CLWPARCLTTELC (linker 1-7-13 via TBMB (inferred)) [SEQ ID NO 157]	low
CQWPARCLHTDLC (linker 1-7-13 via TBMB (inferred)) [SEQ ID NO 121]	high
CDWPARCMHQEFC (linker 1-7-13 via TBMB (inferred)) [SEQ ID NO 152]	low
